molecular target: T1, GST-human NOGO-A56 (human); experiment: direct ELISA, GST-Nogo-A 5+6 coated at 1.0 mcg/ml, anti-human IgG-HRP, Abs490
T1 construct: Expressed in E. coli BL21 from pGEX-6P1 and purified on glutathione-sepharose; the GST tag is part of the protein in the assays; also called GST-Nogo-A 5+6; GST Nogo-A 5 + 6
T1 sequence (chain, as listed by the source limits assumed): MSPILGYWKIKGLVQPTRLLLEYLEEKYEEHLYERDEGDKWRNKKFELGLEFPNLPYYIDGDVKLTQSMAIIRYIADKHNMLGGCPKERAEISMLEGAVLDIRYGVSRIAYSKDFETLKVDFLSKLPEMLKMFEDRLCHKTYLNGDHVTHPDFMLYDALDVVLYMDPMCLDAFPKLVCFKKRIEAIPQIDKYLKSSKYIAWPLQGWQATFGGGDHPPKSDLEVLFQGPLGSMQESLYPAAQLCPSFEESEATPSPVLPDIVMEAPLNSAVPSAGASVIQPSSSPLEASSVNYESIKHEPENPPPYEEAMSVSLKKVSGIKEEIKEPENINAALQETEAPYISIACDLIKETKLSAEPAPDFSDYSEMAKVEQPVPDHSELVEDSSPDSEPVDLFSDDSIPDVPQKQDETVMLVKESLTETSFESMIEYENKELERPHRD
readout type: EC50 (read off the curve)

These solved cases illustrate the format of a correct answer.
# binder, readout type, result
records = [
    ("H27L16 (antibody, human IgG1, kappa, V domains shown, IgG1 (L235A, G237A) / kappa; CAMPATH-1H signal (1-19) left out; also called H27FL L16FL) VH: QVQLVQSGAEVKKPGASVKVSCKASGYTFTSYWMHWVKQRPGQGLEWIGNINPSNGGTNYNEKFKSKATLTVDKSTSTAYMELSSLRSEDTAVYYCELMQGYWGQGTLVTVSS VL: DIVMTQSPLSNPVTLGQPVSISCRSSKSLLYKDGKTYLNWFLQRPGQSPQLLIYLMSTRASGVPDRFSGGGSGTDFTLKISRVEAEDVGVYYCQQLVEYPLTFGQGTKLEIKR", "EC50 (read off the curve)", "~0.04 µg/mL"),
    ("H28L13 (antibody, human IgG1, kappa, V domains shown, IgG1 (L235A, G237A) / kappa; CAMPATH-1H signal (1-19) left out; also called H28FL L13FL) VH: QVQLVQSGAEVKKPGASVKVSCKASGYTFTSYWMHWVRQAPGQGLEWIGNINPSNGGTNYNEKFKSKATMTRDTSTSTAYMELSSLRSEDTAVYYCELMQGYWGQGTLVTVSS VL: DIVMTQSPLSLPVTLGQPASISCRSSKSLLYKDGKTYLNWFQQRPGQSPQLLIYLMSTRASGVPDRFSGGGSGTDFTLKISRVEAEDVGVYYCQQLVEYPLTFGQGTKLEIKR", "EC50 (read off the curve)", "~0.03 µg/mL"),
    ("HcLc (chimera of 2A10: murine 2A10 VH and VL with human IgG constant regions) (antibody, V domains shown, also called chimeric antibody; chimeric form of the parental antibody) VH: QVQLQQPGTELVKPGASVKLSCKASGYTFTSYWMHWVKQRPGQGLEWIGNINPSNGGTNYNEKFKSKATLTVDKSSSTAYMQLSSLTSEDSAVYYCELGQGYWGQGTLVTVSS VL: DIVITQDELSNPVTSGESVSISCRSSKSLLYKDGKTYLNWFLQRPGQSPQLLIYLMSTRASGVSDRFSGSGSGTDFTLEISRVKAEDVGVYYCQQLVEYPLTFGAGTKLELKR", "EC50 (read off the curve)", "~0.08 µg/mL"),
]

From here, focus on the item given below.
Provide EC50 (read off the curve) value for the following binder: H20L16 (antibody, human IgG1, kappa, V domains shown, IgG1 (L235A, G237A) / kappa; CAMPATH-1H signal (1-19) left out) VH: QVQLVQSGAEVKKPGASVKVSCKASGYTFTSYWMHWVRQAPGQGLEWIGNINPSNGGTNYNEKFKSKATMTRDTSTSTAYMELSSLRSEDTAVYYCELGQGYWGQGTLVTVSS VL: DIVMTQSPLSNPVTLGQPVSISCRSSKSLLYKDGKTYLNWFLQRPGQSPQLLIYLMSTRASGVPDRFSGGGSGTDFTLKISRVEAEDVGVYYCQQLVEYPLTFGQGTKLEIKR
~0.1 µg/mL
